Entries and their IC50
- TEST SYSTEM: protein-protein interaction between Kras and SOS1 (biotin-tagged human Kras loaded with GDP, His-tagged human SOS1) (Homo sapiens (Human), UniProt P01116, G12D)
- METHOD: Protein-protein interaction inhibition between Kras and SOS1 (KrasG12D-SOS PPI) using AlphaScreen;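 further: kras produced in E. coli, Ni-coupled donor beads and streptavidin acceptor beads, excitation 680 nm with emission detected at 520–620 nm via singlet oxygen transfer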
- Assay type: biochemical
- SETUP CONDITIONS: AlphaScreen; biotin-tagged human Kras loaded with GDP, His-tagged human SOS1; read-out: KRAS G12D-SOS PPI IC50
Bridge positions count the residues as written; N and C are the ends. Square brackets hold non-standard residues; d marks the D form. Peptide text beside a SMILES is read from it. * marks the point of attachment. hPhe(3-Cl-4-CF3) = N[C@@H](CCc1ccc(C(F)(F)F)c(Cl)c1)C(=O)O; NMePhe(4-CF3) = CN[C@@H](Cc1ccc(C(F)(F)F)cc1)C(=O)O; NMeAbu(4,4,4-F3) = CN[C@@H](CC(F)(F)F)C(=O)O; NMePhe(4-Cl) = CN[C@@H](Cc1ccc(Cl)cc1)C(=O)O; NMePhe(4-Me) = CN[C@@H](Cc1ccc(C)cc1)C(=O)O; NMeGly(cPent) = CN[C@H](C(=O)O)C1CCCC1; NMeCha = CN[C@@H](CC1CCCCC1)C(=O)O; Hyp = O=C(O)[C@@H]1C[C@@H](O)CN1; NMeChg = CN[C@H](C(=O)O)C1CCCCC1; NMeI = CC[C@H](C)[C@H](NC)C(=O)O; NMeD = CN[C@@H](CC(=O)O)C(=O)O; NMeL = CN[C@@H](CC(C)C)C(=O)O; Oxazolidin(3-yl) = C1CN(*)CO1; NMeV = CN[C@H](C(=O)O)C(C)C; d(β3hA) = C[C@@H](N)CC(=O)O; NMeA = CN[C@@H](C)C(=O)O; Nphe = O=C(O)CNCc1ccccc1; Piperidide = C1CCN(*)CC1; Pyrrolidide = C1CCN(*)C1; Ac5c = NC1(C(=O)O)CCCC1; Aze = O=C(O)[C@@H]1CCN1; Sar = CNCC(=O)O
// units = nM; emit number, no label

These solved cases illustrate the format of a correct answer.
IC50 for CC[C@H](C)[C@@H]1NC(=O)[C@H](C)N(C)C(=O)C[C@@H](C(=O)N2CCCCC2)N(C)C(=O)[C@H](C(C)C)N(C)C(=O)C2(CCCC2)NC(=O)CN(Cc2ccccc2)C(=O)[C@H](CCc2ccc(C(F)(F)F)c(Cl)c2)NC(=O)CN(C)C(=O)[C@H](CC2CCCCC2)N(C)C(=O)CN(C)C(=O)CN(C)C1=O [Compound 1676] ([NMeA]I[Sar][Sar][NMeCha][Sar][hPhe(3-Cl-4-CF3)][Nphe][Ac5c][NMeV][NMeD]-Piperidide; lactam N-11) is 1.6

IC50 for CC[C@H](C)[C@@H]1NC(=O)[C@H](CC(C)C)N(C)C(=O)C[C@@H](C(=O)N2CCOC2)NC(=O)[C@H](C(C)C)N(C)C(=O)C2(CCCC2)NC(=O)[C@@H]2CCCN2C(=O)[C@H](CCc2ccc(C(F)(F)F)c(Cl)c2)NC(=O)CN(C)C(=O)[C@H](CC2CCCCC2)N(C)C(=O)[C@@H]2CCN2C(=O)[C@H](C)N(C)C1=O [Compound 1188] ([NMeL]I[NMeA][Aze][NMeCha][Sar][hPhe(3-Cl-4-CF3)]P[Ac5c][NMeV]D-{Oxazolidin(3-yl)}; lactam N-11) is 33

IC50 for CC[C@H](C)[C@@H]1NC(=O)[C@H](C)N(C)C(=O)C[C@@H](C)NC(=O)[C@H](C2CCCC2)N(C)C(=O)C2(CCCC2)NC(=O)[C@@H]2CCCN2C(=O)[C@H](CCc2ccc(C(F)(F)F)c(Cl)c2)NC(=O)CN(C)C(=O)[C@H](Cc2ccc(C(F)(F)F)cc2)N(C)C(=O)[C@@H]2CCN2C(=O)[C@H](C)N(C)C1=O [Compound 1512] (cyclo([Ac5c][NMeGly(cPent)][d(β3hA)][NMeA]I[NMeA][Aze][NMePhe(4-CF3)][Sar][hPhe(3-Cl-4-CF3)]P)) is 1.2

IC50 for CC[C@H](C)[C@@H]1NC(=O)[C@H](CC(C)C)N(C)C(=O)C[C@@H](C(=O)N2CCCCC2)N(C)C(=O)[C@H]([C@@H](C)CC)N(C)C(=O)C2(CCCC2)NC(=O)[C@@H]2CCCN2C(=O)[C@H](CCc2ccc(C(F)(F)F)c(Cl)c2)NC(=O)CN(C)C(=O)[C@H](Cc2ccc(Cl)cc2)N(C)C(=O)[C@@H]2CCN2C(=O)[C@H](C)N(C)C1=O [Compound 253] ([NMeL]I[NMeA][Aze][NMePhe(4-Cl)][Sar][hPhe(3-Cl-4-CF3)]P[Ac5c][NMeI][NMeD]-Piperidide; lactam N-11) is 0.99

Attention now shifts to the item below.
IC50 for CCO[C@@H]1C[C@H]2C(=O)NC3(CCCC3)C(=O)N(C)[C@@H](C3CCCCC3)C(=O)N(C)[C@H](C(=O)N3CCCC3)CC(=O)N(C)[C@@H](CC(F)(F)F)C(=O)N[C@@H]([C@@H](C)CC)C(=O)N(C)CC(=O)N(C)CC(=O)N(C)[C@@H](Cc3ccc(C)cc3)C(=O)N(C)CC(=O)N[C@@H](CCc3ccc(C(F)(F)F)c(Cl)c3)C(=O)N2C1 [Compound 1339] ([NMeAbu(4,4,4-F3)]I[Sar][Sar][NMePhe(4-Me)][Sar][hPhe(3-Cl-4-CF3)][Hyp](Et)[Ac5c][NMeChg][NMeD]-Pyrrolidide; lactam N-11) is 0.57
